biological target: Vasoactive intestinal polypeptide receptor 2 (Homo sapiens) (UniProt P41587); assay: Antagonist activity at recombinant human N-terminal signal peptide/FLAG epitope-tagged Rluc8-fused VIPR2 expressed in HEK293 cells assessed as inhibition of VIP-induced human mVenus-beta-arrestin2 binding at 0.5 uM preincubated for 5 mins with luciferin, coelenterazine H followed by VIP addition measured after 5 mins by BRET assay relative to control; format: cell-based
Sequence (P41587 whole entry, the tested form may be a part): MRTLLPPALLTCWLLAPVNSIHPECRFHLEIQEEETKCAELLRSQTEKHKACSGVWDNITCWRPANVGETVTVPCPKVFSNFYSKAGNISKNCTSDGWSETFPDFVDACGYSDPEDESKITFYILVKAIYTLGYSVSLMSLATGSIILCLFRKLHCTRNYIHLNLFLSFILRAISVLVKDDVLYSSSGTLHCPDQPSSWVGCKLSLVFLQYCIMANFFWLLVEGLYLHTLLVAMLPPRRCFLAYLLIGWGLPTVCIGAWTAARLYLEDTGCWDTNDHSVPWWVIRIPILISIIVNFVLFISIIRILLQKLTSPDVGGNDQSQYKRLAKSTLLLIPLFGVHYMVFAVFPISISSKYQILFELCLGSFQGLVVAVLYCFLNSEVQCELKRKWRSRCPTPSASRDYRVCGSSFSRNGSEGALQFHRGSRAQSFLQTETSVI
Below is a list of entries, each paired with its recorded inhibition value.

Take a look at these entries with their results.
compound	targetOrTestSystem	recordedValue
CC(C)c1ccc(S(=O)(=O)NC[C@@H](O)C[C@@H](Cc2ccccc2)C(=O)N[C@H]2c3ccccc3C[C@H]2O)cc1	Vasoactive intestinal polypeptide receptor 2 (Homo sapiens) (UniProt P41587)	31.5 to 93%
O=C(NC1CCCc2ccccc21)[C@H](Cc1ccccc1)C[C@H](O)CNS(=O)(=O)c1ccc([N+](=O)[O-])cc1 (some centres undefined)	Vasoactive intestinal polypeptide receptor 2 (Homo sapiens) (UniProt P41587)	3.3 to 13.8%
CO[C@@H]1Cc2ccccc2[C@@H]1NC(=O)[C@H](Cc1ccccc1)C[C@H](O)CN(C)S(=O)(=O)c1ccc([N+](=O)[O-])cc1	Vasoactive intestinal polypeptide receptor 2 (Homo sapiens) (UniProt P41587)	4.9 to 6.9%
CNc1ccc(S(=O)(=O)NC[C@@H](O)C[C@@H](Cc2ccccc2)C(=O)N[C@H]2c3ccccc3C[C@H]2O)cc1	Vasoactive intestinal polypeptide receptor 2 (Homo sapiens) (UniProt P41587)	-1.5 to -0.8%
CC(C)CNc1ccc(S(=O)(=O)NC[C@@H](O)C[C@@H](Cc2ccccc2)C(=O)N[C@H]2c3ccccc3C[C@H]2O)cc1	Vasoactive intestinal polypeptide receptor 2 (Homo sapiens) (UniProt P41587)	10.2 to 19.6%
CCC(=O)Nc1ccc(S(=O)(=O)NC[C@@H](O)C[C@@H](Cc2ccccc2)C(=O)N[C@H]2c3ccccc3C[C@H]2O)cc1	Vasoactive intestinal polypeptide receptor 2 (Homo sapiens) (UniProt P41587)	-3.4 to 8.25%

Sure, the documented inhibition for COc1ccc(S(=O)(=O)NC[C@@H](O)C[C@@H](Cc2ccccc2)C(=O)N[C@H]2c3ccccc3C[C@H]2O)cc1 is 54.1 to 91.6%

Sure, the documented inhibition for CO[C@@H]1Cc2ccccc2[C@@H]1NC(=O)[C@H](Cc1ccccc1)C[C@H](O)CNS(=O)(=O)c1ccc(C(C)=O)cc1 is 76.2%

Sure, the documented inhibition for CCCCNC(=O)c1ccc(S(=O)(=O)NC[C@@H](O)C[C@@H](Cc2ccccc2)C(=O)N[C@H]2c3ccccc3C[C@H]2O)cc1 is -0.4 to 7.55%

Sure, the documented inhibition for O=C(N[C@H]1c2ccccc2C[C@H]1O)[C@H](Cc1ccccc1)C[C@H](O)CNS(=O)(=O)c1ccc(C(F)(F)F)cc1 is 58.1 to 95.7%

Sure, the documented inhibition for O=C(NC[C@@H](O)C[C@@H](Cc1ccccc1)C(=O)N[C@H]1c2ccccc2C[C@H]1O)c1ccc([N+](=O)[O-])cc1 is -0.5 to 18.8%
